System: Malme-3M
Assay: NCI tumour cell line growth inhibition, 48 h
Calls of active or inactive are those of the source. Cut-off read from the data, not from the text of the source: active = GI50 up to about 1.1 µM and inactive = higher.
Lab note: assign the record to one of 1 (active), -1 (inactive)

Example cases with answers are listed next.
CC1C(c2ccc3c(c2)OCO3)c2cc3c(cc2OC1N1CCOCC1)OCO3 (stereo unspecified) : -1
CCOC(=O)NNC(=O)C1CSC(c2ccccc2)N1C(C)=O (stereo unspecified) : -1
COC(=O)/C=C(\C(=O)OC)c1c2c3c(cc(OC)c(OC)c3c3ccccc13)CCN2C : -1
COc1cc(/C=C/C(=O)C(C)(C)C)cc(OC)c1OC : -1
CC(C)C[C@H](NC(=O)CCc1cccc2ccccc12)B(O)O : 1
O=C(/C=C/c1cccc2ccccc12)c1ccccc1Cl : -1
OCC1C2CCC3(OCCO3)C12 (stereo unspecified) : -1
CCN(CC)CCNC(=O)c1ccc(C)c(OCc2ccccc2)c1[N+](=O)[O-] : -1
N#Cc1c2c(c(N3CCOCC3)n3c1nc1ccccc13)CCCC2 : -1
CO[C@H](/C(C)=C/C=C/C(C)=C/c1coc(C)n1)[C@H](C)[C@H]1C[C@@H](O)[C@@]2(C)O[C@H]2/C=C/[C@@H](C)[C@@H]2C[C@@H](CC(=O)O2)C[C@H]2O[C@@H]2C(=O)O1 : 1

Q: Short answer needed: outcome of this test for COC(=O)C1C(O)CCC2CN3CCc4c([nH]c5ccccc45)C3CC21 (stereo unspecified) ?
Result: -1

Q: Short answer needed: outcome of this test for O=c1[nH]c2cc3cccnc3c(Cl)c2nc1CBr ?
Result: -1

Q: Short answer needed: outcome of this test for O=c1[nH]c(C2CCCCC2)nc2c(Cl)cccc12 ?
Result: -1

Q: Short answer needed: outcome of this test for O=C(O)CCC(=O)C(=O)O ?
Result: -1

Q: Short answer needed: outcome of this test for C=C(C)CCN[Si](c1ccccc1)(c1ccccc1)C(C)(C)C ?
Result: -1

Q: Short answer needed: outcome of this test for Cc1ccc(NC(=O)CC(=O)n2nc(-c3ccccc3)c(/N=N/c3ccccc3Cl)c2-c2ccccc2)cc1 ?
Result: -1

Q: Short answer needed: outcome of this test for Cn1cc(NC(=O)c2cc(NC(=O)Nc3cc(C(=O)Nc4cc(C(=O)NCCC(=N)N)n(C)c4)n(C)c3)cn2C)cc1C(=O)NCCC(=N)N ?
Result: -1

Q: Short answer needed: outcome of this test for CC(=O)C(C(=O)C(C)(C)C)C(=O)C(C)(C)C ?
Result: -1

Q: Short answer needed: outcome of this test for COC(=O)C(Cc1cc(OC)c(OC)c(OC)c1)c1ccc(OC)cc1 (stereo unspecified) ?
Result: -1

Q: Short answer needed: outcome of this test for C=C1C(=O)OC2/C=C(/C)C(OC(C)=O)CC(O)/C(C)=C\C(OC(=O)/C(C)=C\C)C12 (stereo unspecified) ?
Result: -1

Q: Short answer needed: outcome of this test for CC(NS(C)(=O)=O)c1ccccc1 (stereo unspecified) ?
Result: -1

Q: Short answer needed: outcome of this test for CCOC(=O)C(Cc1ccccc1)NC(=O)c1ccc(/N=N/N(C)C)cc1 (stereo unspecified) ?
Result: -1

###

Test system: RXF 393
Test: NCI tumour cell line growth inhibition, 48 h
The source made the active and inactive calls. No stated cut-off is given here; in the data, active = GI50 up to about 1.1 µM and inactive = higher. Where a SMILES comes first, the peptide text is derived from it. The star is where a group is joined. Boc = CC(C)(C)OC(=O)*; OBn = c1ccc(CO*)cc1
Lab note: assign the record to one of true (1) (active), false (0) (inactive)

Example cases with answers are listed next.
CC(=O)OCC1OC(n2c3c(c(-c4ccc(Cl)cc4)c(C#N)c2=S)C(=O)CC(C)(C)C3)C(OC(C)=O)C(OC(C)=O)C1OC(C)=O (stereo not given) : false (0)
CC(NS(C)(=O)=O)c1ccccc1 (stereo not given) : false (0)
COC(=O)C1([C@@H]2C[C@@H](O)[C@]3(C)CC/C=C(\C)CCC[C@H](C)[C@H](O)[C@@H]2O3)CC1 : false (0)
Cc1ccc(-c2cc(-c3ccco3)c(C#N)c(=S)[nH]2)cc1 : false (0)
O=C1ON(Cc2ccccc2)C(c2ccccc2)N1c1ccccc1 (stereo not given) : false (0)

Q: Short answer needed: outcome of this test for O=C1CSc2ccncc2N1 ?
Result: false (0)

Q: Short answer needed: outcome of this test for COc1ccc(/C=C2\N=C(SC)N(C)C2=O)cc1 ?
Result: false (0)

Q: Short answer needed: outcome of this test for CCOC(=O)C1=C(C(=O)OCC)C2(c3ccccc3)N(O1)c1ccccc1C2(C)C (stereo not given) ?
Result: false (0)

Q: Short answer needed: outcome of this test for CN(C)CCNc1ccc2c(=O)n(CCN(C)C)c(=O)n3c4ccc(O)cc4c(=O)c1c23 ?
Result: true (1)

Q: Short answer needed: outcome of this test for CC(C)CC12CC3CCC(CNC1=O)C32C (stereo not given) ?
Result: false (0)

Q: Short answer needed: outcome of this test for O=C(Cc1c(C(=O)Nc2ccccc2)sc(C(=O)Nc2ccccc2)c1CC(=O)Nc1ccccc1)Nc1ccccc1 ?
Result: false (0)

Q: Short answer needed: outcome of this test for CC(C)CC(NC(=O)C(Cc1ccccc1)NC(=O)C(Cc1ccccc1)NC(=O)OC(C)(C)C)C(=O)OCc1ccccc1 (stereo not drawn) (Boc-Phe-Phe-Leu-OBn; configuration not given here) ?
Result: false (0)

Q: Short answer needed: outcome of this test for Cc1ccc(NC(=O)c2cc3ccccc3c(/N=N\c3ccccc3O)c2O)c(C)c1 ?
Result: false (0)

Q: Short answer needed: outcome of this test for N#Cc1nc(-c2ccsc2)oc1N ?
Result: false (0)

###

Readings of GI50 for the listed compounds
System: NCI-H23
Assay: NCI tumour cell line growth inhibition, 48 h
Calls of active or inactive are those of the source. Cut-off read from the data, not from the text of the source: active = GI50 up to about 1.1 µM and inactive = higher.

Example entries begin here.
O=Cc1cc2c(o1)C(=O)c1ccccc1C2=O : 0.191 µM (active)
COc1ccc(CCNC(=O)[C@H]2CCCC[C@@H]2CCO)cc1OC : > 100 µM (inactive)
CC(C)c1ccc2c(c1)/C(=C1/Nc3ccccc3C1=O)C(=O)N2 : 24.4 µM (inactive)
Cc1ccc(/N=N/c2c(O)ccc3ccccc23)c(C)c1 : > 100 µM (inactive)
O=C(CSc1nc(-c2ccccc2)c(-c2ccccc2)[nH]1)NNC(=S)Nc1ccccc1 : > 100 µM (inactive)
O=C1NC2=C(CCCC/C2=N\O)C12CCCCC2 : > 100 µM (inactive)

GI50 value, target or system NCI-H23, for O=C(/C=C/c1cccc2ccccc12)c1ccccc1Cl : 14.3 µM (inactive)

GI50 value, target or system NCI-H23, for CCOC(=O)NC(Nc1cccc(F)c1)(C(F)(F)F)C(F)(F)F : > 100 µM (inactive)

###

Test system: SK-MEL-28
Assay: NCI tumour cell line growth inhibition, 48 h
Active and inactive are the calls of the source. Rule as the data show it: active = GI50 up to about 1.1 µM and inactive = higher.
Lab note: assign the record to one of y (active), n (inactive)

Example cases with answers are listed next.
Cc1cccc2nc3cccc(C(=O)NCCC[N+](C)(CCCNC(=O)c4cccc5nc6cccc(C)c6nc45)Cc4c([N+](=O)[O-])ncn4C)c3nc12 : y
O=C1CCc2ccc(O)c(c2)Oc2ccc(cc2)C(Sc2ccccc2)CCO1 (centres undefined) : n
O=C(Cn1c2ccc(Br)cc2c2nc3ccccc3nc21)NC1CCCCC1 : n
N#CC(C(=O)CCCC(=O)Nc1ccc(Cl)cc1Cl)c1ccccc1 (centres undefined) : n
Clc1nc(NCCc2ccccc2)c2ncn(-c3ccccc3)c2n1 : n

Q: Short answer needed: outcome of this test for N=C(N)C(/N=N\c1ccccc1)C(=N)N (centres undefined) ?
Result: n

Q: Short answer needed: outcome of this test for COc1ccc(NC(=O)CC(=O)n2nc(C)c(/N=N/c3cccc(C)c3)c2C)cc1 ?
Result: n

Q: Short answer needed: outcome of this test for COC(=O)C1=CN(C2CCCCC2)C2(c3ccccc3)c3ccccc3C(=O)OC(=O)C12 (centres undefined) ?
Result: n

Q: Short answer needed: outcome of this test for COc1ccc(C(=O)CC2=Nc3nnc(CCCCCCCc4nnc5n4C(=O)C(CC(=O)c4ccc(OC)cc4)=N5)n3C2=O)cc1 ?
Result: n

Q: Short answer needed: outcome of this test for CN(C)C(=O)C1CCN(Cc2c[nH]c3ccccc23)CC1 ?
Result: n

Q: Short answer needed: outcome of this test for COc1cc(C2C(C(=O)Nc3ccc(Cl)c(Cl)c3)=C(C)NC(C)=C2C(=O)Nc2ccc(Cl)c(Cl)c2)ccc1O ?
Result: n

Q: Short answer needed: outcome of this test for Cc1cc(C)nc(NS(=O)(=O)c2ccc(NC(=O)c3ccc(Cl)c4c(Nc5ccc(S(=O)(=O)Nc6nc(C)cc(C)n6)cc5)c5ccccc5nc34)cc2)n1 ?
Result: n

Q: Short answer needed: outcome of this test for Cn1c(=O)c2nc(CCCCc3nc4c(=O)n(C)c(=S)n(C)c4[nH]3)[nH]c2n(C)c1=S ?
Result: n

Q: Short answer needed: outcome of this test for CCN(CC)CCCC(C)NC(=O)c1cc(-c2nccn2C)nc2ccc(C)cc12 (centres undefined) ?
Result: n

Q: Short answer needed: outcome of this test for CN(C)c1ccc(/C=c2\sc3nnc(-c4ccco4)n3c2=O)cc1 ?
Result: n

Q: Short answer needed: outcome of this test for CCN(CC)C(=S)/N=C(\SC(=S)N(CC)CC)c1ccccc1 ?
Result: n

Q: Short answer needed: outcome of this test for O=[N+]([O-])c1ccc(N/N=C/c2ccc(OCCCCCCCCCCCO)cc2)c([N+](=O)[O-])c1 ?
Result: n

Q: Short answer needed: outcome of this test for CSc1cc(Cl)c(C)cc1S(=O)(=O)NC(=O)NNc1ccc(F)c(Cl)c1 ?
Result: n

Q: Short answer needed: outcome of this test for O=C(O)Cc1cccc2c1Oc1ccccc1S2 ?
Result: n
